# Target or test system: human Kv1.2 channel expressed in Cos-7 cells (human), P16389
# Sequence (P16389 whole entry): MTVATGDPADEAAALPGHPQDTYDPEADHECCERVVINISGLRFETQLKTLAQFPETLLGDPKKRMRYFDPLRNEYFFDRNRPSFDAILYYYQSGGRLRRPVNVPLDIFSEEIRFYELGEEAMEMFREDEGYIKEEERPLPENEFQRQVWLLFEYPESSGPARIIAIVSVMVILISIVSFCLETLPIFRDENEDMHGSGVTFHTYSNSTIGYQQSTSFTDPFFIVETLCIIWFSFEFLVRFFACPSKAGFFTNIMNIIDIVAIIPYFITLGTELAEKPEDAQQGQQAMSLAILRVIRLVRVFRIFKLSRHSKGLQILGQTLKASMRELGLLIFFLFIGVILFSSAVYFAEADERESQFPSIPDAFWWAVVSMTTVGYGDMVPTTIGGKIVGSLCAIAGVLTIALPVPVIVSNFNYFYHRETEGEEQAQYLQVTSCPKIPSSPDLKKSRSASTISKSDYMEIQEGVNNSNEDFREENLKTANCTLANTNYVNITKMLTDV
Property name: Kd

Binder	Result
AAAISCVGSPECPPKCRAQGCKNGKCMNRKCKCYYC (modifications not checked) [Vm24 (native peptide purified from the venom of Vaejovis mexicanus smithi)]	5 to 10 nM
